tested on: RXRa DBDmut IVT, anti-RXR (DBD mutation: RXRa K156A/R161A, NR concentration 90 nM); experiment: PBM binding z-score (relative to random genomic background probes); higher = stronger binding; sequences stand for … in GC…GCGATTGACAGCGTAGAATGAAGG
Would you kindly list PBM binding z-score for each of these sequences?
Quick one: just the number, no unit, thanks!

Request: Write down the reported PBM binding z-score of `CGTCCAAGGTCAAGGTCAGTCAAAGAGACTCGAA` , test system: RXRa DBDmut IVT, anti-RXR (DBD mutation: RXRa K156A/R161A, NR concentration 90 nM).
Result: 4.09

Request: Write down the reported PBM binding z-score of `CGACCAAGGTCAGCAGGTCAGTGAAAGCGACGTG` , test system: RXRa DBDmut IVT, anti-RXR (DBD mutation: RXRa K156A/R161A, NR concentration 90 nM).
Result: 2.12

Request: Write down the reported PBM binding z-score of `GATACAGGGTAAGCTAGAGGCCAGAGTATGGAAA` , test system: RXRa DBDmut IVT, anti-RXR (DBD mutation: RXRa K156A/R161A, NR concentration 90 nM).
Result: -0.967

Request: Write down the reported PBM binding z-score of `AGAACGAGGGCAATGAGTTGATATCACGGGTGGC` , test system: RXRa DBDmut IVT, anti-RXR (DBD mutation: RXRa K156A/R161A, NR concentration 90 nM).
Result: 2.15

====

tested on: PPARg homodimer (NR concentration 180 nM); assay: PBM binding z-score (relative to random genomic background probes); higher = stronger binding; sequences stand for … in GC…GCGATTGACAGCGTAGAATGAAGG
Would you kindly list PBM binding z-score for each of these sequences?
Quick one: just the number, no unit, thanks!

Request: Write down the reported PBM binding z-score of `GCTAGTTGGTCAGTAAAAGGACACACACCGGTCG` , test system: PPARg homodimer (NR concentration 180 nM).
Result: 0.811

Request: Write down the reported PBM binding z-score of `ATCTCTAGATAACCAAGTTCAGTGAATGCCGAAC` , test system: PPARg homodimer (NR concentration 180 nM).
Result: 0.44

Request: Write down the reported PBM binding z-score of `TCTCGAAGGACACGAAAGGTCAGAGCTCGACATC` , test system: PPARg homodimer (NR concentration 180 nM).
Result: 1.75

Request: Write down the reported PBM binding z-score of `CTACCAAGGTGAACAAGGTCGTTGAGTACTATTC` , test system: PPARg homodimer (NR concentration 180 nM).
Result: 0.759

Request: Write down the reported PBM binding z-score of `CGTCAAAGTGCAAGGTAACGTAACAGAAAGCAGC` , test system: PPARg homodimer (NR concentration 180 nM).
Result: 0.153

Request: Write down the reported PBM binding z-score of `AGGATGAGGTTAAGATCAGGGAAACAGAATACAT` , test system: PPARg homodimer (NR concentration 180 nM).
Result: 1.27

Request: Write down the reported PBM binding z-score of `AGCCAAAGTTCAGGACGAGGTAACGTAAAGCACG` , test system: PPARg homodimer (NR concentration 180 nM).
Result: 1.29

Request: Write down the reported PBM binding z-score of `TAGCCTAGATCATGCGGGCCAGTATAGTGTCGGC` , test system: PPARg homodimer (NR concentration 180 nM).
Result: -1.53

Request: Write down the reported PBM binding z-score of `TCATATAGGTAAAAGGTGAAAGTGGGTGTGGTAA` , test system: PPARg homodimer (NR concentration 180 nM).
Result: 2.63

Request: Write down the reported PBM binding z-score of `CCTACTGGGCCAAAGGGCATTGATTCCAATGCTC` , test system: PPARg homodimer (NR concentration 180 nM).
Result: 1.09

Request: Write down the reported PBM binding z-score of `GCTACTGGGGCAAAGCAGGTTACCATAAGGTTGG` , test system: PPARg homodimer (NR concentration 180 nM).
Result: 0.182

Request: Write down the reported PBM binding z-score of `ATCGAAAGGTCGTGAGGGGAGTATACAGAAAGGC` , test system: PPARg homodimer (NR concentration 180 nM).
Result: 2.22

Request: Write down the reported PBM binding z-score of `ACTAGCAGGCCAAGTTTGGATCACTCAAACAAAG` , test system: PPARg homodimer (NR concentration 180 nM).
Result: -0.574

Request: Write down the reported PBM binding z-score of `TTATCAAGGTGAAGGTCGTTGATCCCTCTGTAGA` , test system: PPARg homodimer (NR concentration 180 nM).
Result: 1.18

Request: Write down the reported PBM binding z-score of `TCGAGTAGGATAGGGGCATTCAGAATGGCGTCGA` , test system: PPARg homodimer (NR concentration 180 nM).
Result: 0.0464

Request: Write down the reported PBM binding z-score of `CCTAGTTGGTCAGGAGGTCACACCCCGGATATGA` , test system: PPARg homodimer (NR concentration 180 nM).
Result: 3.14

Request: Write down the reported PBM binding z-score of `TCTCGGAGGACACGAAAGGTCAGAGCTCGACATC` , test system: PPARg homodimer (NR concentration 180 nM).
Result: 3.04

Request: Write down the reported PBM binding z-score of `ATCGAAAGGTCGTGAGGAGAGTATACAGAAAGGC` , test system: PPARg homodimer (NR concentration 180 nM).
Result: 2.69

====

tested on: LXRa:RXRa (NR concentration 270 nM, RXRa partner concentration 90 nM); experiment: PBM binding z-score (relative to random genomic background probes); higher = stronger binding; sequences stand for … in GC…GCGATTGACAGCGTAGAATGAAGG
Would you kindly list PBM binding z-score for each of these sequences?
Quick one: just the number, no unit, thanks!

Request: State the recorded PBM binding z-score for this entry: `TCTAGTTGGTCACGCAGGTCACACACGACGGGTA`
Result: 1.98

Request: State the recorded PBM binding z-score for this entry: `ATATGTAGGCTATCGGGTCATTCAGTTTGCGCAT`
Result: 1.58

Request: State the recorded PBM binding z-score for this entry: `CCGACTGGGGGATAAGGTTACCATAAGCCAGCCC`
Result: 2.65

Request: State the recorded PBM binding z-score for this entry: `CCAGACAGGTGAATGGTAACTCAGTCTGGTACGC`
Result: -0.493

Request: State the recorded PBM binding z-score for this entry: `TCATATAGGTAATACAGCTGAAAGTCGGCATCTA`
Result: 0.674

Request: State the recorded PBM binding z-score for this entry: `TCTAGCAGGCCAGATGGTCACTCAAGAGGTACGG`
Result: -0.551

Request: State the recorded PBM binding z-score for this entry: `GCAGACAGGTGTAACGCAGGTAACTCAGGGTGGC`
Result: -0.644

Request: State the recorded PBM binding z-score for this entry: `TCGAGTAGGTTACCAATAGGGCATTCAGCTTTCT`
Result: 2.16

Request: State the recorded PBM binding z-score for this entry: `TCTCGGAGGACACGAAGGTCAGACCTTTCCAGAG`
Result: 1.26

Request: State the recorded PBM binding z-score for this entry: `CTTTACGGGTCACTGACAGGTTATAGCATTTGGA`
Result: 5.09

Request: State the recorded PBM binding z-score for this entry: `TGTCAAAGTTCATAGGTAACGTAAGTATCCACAC`
Result: 5.95

Request: State the recorded PBM binding z-score for this entry: `CGTCAAAGTTCAAGGTAAGGTAACAGAAAGCAGC`
Result: 5.4

Request: State the recorded PBM binding z-score for this entry: `CCTACTGGGCCAAAGGTCATTGTTTCCAATGCTC`
Result: 5.08

Request: State the recorded PBM binding z-score for this entry: `TCTGGTAGATCAAAGGTTAAGAAAGCCGAAGCCT`
Result: 2.1

Request: State the recorded PBM binding z-score for this entry: `CCTCGGAGGACAACAGGAGGTCAGCGCTGCCAGA`
Result: 2.48

Request: State the recorded PBM binding z-score for this entry: `GCTATTAGTTGAAAGGGCTACCGAATGATTCTCG`
Result: -0.291

Request: State the recorded PBM binding z-score for this entry: `TAGCCGAGGTCATGCGGGCCAGTATAGTGTCGGC`
Result: 5.94

Request: State the recorded PBM binding z-score for this entry: `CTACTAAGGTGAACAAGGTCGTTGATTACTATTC`
Result: 1.76

Request: State the recorded PBM binding z-score for this entry: `TCAGACAGGTGAAGGTAACTCATGTACGCAGTCG`
Result: 1.03

====

system: LXRb homodimer (NR concentration 270 nM); experiment: PBM binding z-score (relative to random genomic background probes); higher = stronger binding; sequences stand for … in GC…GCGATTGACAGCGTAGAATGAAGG
Would you kindly list PBM binding z-score for each of these sequences?
Quick one: just the number, no unit, thanks!

Request: State the recorded PBM binding z-score for this entry: `CGTCCAAGTTCAATGCTAGGTCAGTGAAAGCATT`
Result: 0.297

Request: State the recorded PBM binding z-score for this entry: `TCTAGCAGGCCAGAGGGTCACCCAAGAGGTACGG`
Result: -0.868

Request: State the recorded PBM binding z-score for this entry: `ATCGAAAGGTCGAGGGTGAGTATACCCACCCGAA`
Result: 0.248

Request: State the recorded PBM binding z-score for this entry: `ACTAGCAGGCCAAGTTTGGGTAACTCAAACAAAG`
Result: -0.8

Request: State the recorded PBM binding z-score for this entry: `AGAACGAGGGCACGCTGAGTCGATAGCAGAGTAG`
Result: -1.26

Request: State the recorded PBM binding z-score for this entry: `CGAACTAGGTCATCCAGGACACTGAATACATTGA`
Result: 0.265

Request: State the recorded PBM binding z-score for this entry: `TCTCTGAGGACACGAAAGGTCAGAGCTCGACATC`
Result: 0.245

Request: State the recorded PBM binding z-score for this entry: `CTAACTAGGTCATTGACAGGACAGTGAATAGTAA`
Result: 0.469

Request: State the recorded PBM binding z-score for this entry: `ACTAGTAGTTGACTTAGGGCAACCGATACGACGC`
Result: -0.259

Request: State the recorded PBM binding z-score for this entry: `CAAACTAGGTCAAAGGTCAAAGGCGAGCCAACCA`
Result: 2.68

Request: State the recorded PBM binding z-score for this entry: `TCTATTAGTTGATTAGGGCAACCTAAACAGCGGA`
Result: 0.8

Request: State the recorded PBM binding z-score for this entry: `ATATGGAGGTTATCGGGTCATTCAGTTTGCGCAT`
Result: 1.41

Request: State the recorded PBM binding z-score for this entry: `AGAATTAGGTTATACGTAGATCAGGGAAGAAAGT`
Result: 0.596

Request: State the recorded PBM binding z-score for this entry: `AGAATGAGGTTAAGATGAGGGAAACAGAATACAT`
Result: 0.124

Request: State the recorded PBM binding z-score for this entry: `TGTCAAAGTTCAGAGGTAACGTAAGTATCCACAC`
Result: 0.204

Request: State the recorded PBM binding z-score for this entry: `ACAGACAAGTGAGTGAAGGTAACTCAGCTGGACG`
Result: -0.342

Request: State the recorded PBM binding z-score for this entry: `CCGACTGGGGCATAAGGTCACCATAAGCCAGCCC`
Result: -0.819

Request: State the recorded PBM binding z-score for this entry: `TCTGCTAGCTCAGTTGGTCAGCTAACGAGCTGCC`
Result: -0.714

Request: State the recorded PBM binding z-score for this entry: `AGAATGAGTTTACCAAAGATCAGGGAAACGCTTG`
Result: -0.632

Request: State the recorded PBM binding z-score for this entry: `TCTAGTTGGTCACGGACGTCACACACGACGGGTA`
Result: 0.211

Request: State the recorded PBM binding z-score for this entry: `CAAACAAGGTCAAGGTCAAAGTCGGTTTGTGCCA`
Result: 2.25

Request: State the recorded PBM binding z-score for this entry: `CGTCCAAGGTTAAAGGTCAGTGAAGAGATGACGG`
Result: 0.226

Request: State the recorded PBM binding z-score for this entry: `CGGCCAAGGTCAAGGTCAGTGAAAGAGACTCGAA`
Result: 0.323

Request: State the recorded PBM binding z-score for this entry: `GCTAGCATGCCATTTGGGTCACTCAATGACGGGC`
Result: -0.628

Request: State the recorded PBM binding z-score for this entry: `CTCGAAAGGTCTGTTGAGGTGAGTATACGGATAA`
Result: -0.339

Request: State the recorded PBM binding z-score for this entry: `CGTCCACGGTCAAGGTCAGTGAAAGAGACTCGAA`
Result: -0.801

Request: State the recorded PBM binding z-score for this entry: `TCTGCTAGGTCAGTTGGTCAGCTAGCGAGCTGCC`
Result: 0.185

Request: State the recorded PBM binding z-score for this entry: `CGTACTAGGTCAGAACAGGACAGTGAAGGATGAT`
Result: -0.0494

Request: State the recorded PBM binding z-score for this entry: `TAGCCTAGGTCAAGGGCCAGTATACCACGCGAAC`
Result: -0.716

Request: State the recorded PBM binding z-score for this entry: `CAAACTAGGTCACGAATGGTCAAAGTCGAATGAC`
Result: 0.546

Request: State the recorded PBM binding z-score for this entry: `TCATATAGGTAAACAGGTGAAAGGCCGTAAGTTA`
Result: 0.244

Request: State the recorded PBM binding z-score for this entry: `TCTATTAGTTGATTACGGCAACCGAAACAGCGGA`
Result: 0.998

Request: State the recorded PBM binding z-score for this entry: `CCAGAAAGGTGAGAAGGTAACTCAGCCTCGATTA`
Result: -0.293
